test system: pdr5 ypt1^ts cells; test: microbe, parasite or virus in culture; type: cell-based, yeast; settings: Table 2; 12.5 μM compound; 37° C.; background (0 μM) 0.058
optical density, ypt1-ts, 12.5 by entry:
API note: the answer field is a bare number with no unit suffix.

C=C1CCC2C(CC2(C)C)C(=C)CC/C1=N/O (stereo not drawn) [5- HYDROXYIMINOISOC ARYOPHYLLENE] | 0.131
COc1cccc(/C=C/C(=O)O)c1C(C)C [2-ISOPROPYL-3- METHOXYCINNAMIC ACID] | 0.184
CCC(=O)Nc1ccc(Cl)c(Cl)c1 [PROPANIL] | 0.217
O=C([O-])Cc1ccccc1Nc1c(Cl)cccc1Cl.[Na+] [DICLOFENAC SODIUM, reference compound] | 0.126
CC1=CC(=O)[C@H]2C(C)(C)CCC[C@]2(C)[C@@]1(O)CCc1ccoc1 [SOLIDAGENONE] | 0.439
O=C(/C=C/c1ccccc1)c1ccc(O)cc1 [4'- HYDROXYCHALCONE] | 0.329
CC(=O)[C@H]1CC[C@H]2[C@@H]3CCC4=CC(=O)CC[C@]4(C)[C@H]3CC[C@]12C [PROGESTERONE, reference compound] | 0.15
COc1ccc(-c2cc(=O)c3ccccc3o2)cc1 [4′-METHOXYFLAVONE] | 0.556

### Prompt Query (molecule): C=C1C2CC[C@@]3(C)[C@H](c4ccoc4)OC(=O)C[C@]13O[C@H]1C[C@H](OC(C)=O)C(C)(C)[C@H](CC(=O)OC)[C@@]21C [3beta- ACETO[…] ACID, METHYL ESTER] ; field requested: optical density, ypt1-ts, 12.5
### Response 0.571

### Prompt Quick one: CCOC(=O)C1=C(C)NC(C)=C(C(=O)OC)C1c1cccc([N+](=O)[O-])c1 (stereo not drawn) [NITRENDIPINE, reference compound]
### Response 0.403

### Prompt Item: CC(=O)c1cc(CC=C(C)C)c(O)c(CC=C(C)C)c1
### Response 0.112

### Prompt Here is the next molecule: C=CCC1(C(C)CCC)C(=O)N=C([S-])NC1=O.[Na+] (stereo not drawn) [THIAMYLAL SODIUM, reference compound]
### Response 0.162

### Prompt What about COc1cccc2c1CCC1CC(=O)CC[C@]21C (stereo partly drawn) ?
### Response 0.191

### Prompt Record: COC(=O)[C@]1(C)CC[C@]2(C)CC[C@]3(C)C4=CC=C5C(=CC(=O)C(O)=C5C)[C@]4(C)CC[C@@]3(C)[C@@H]2C1 [PRISTIMERIN]
### Response 0.676

### Prompt Then this molecule: CC(C)OC(=O)Nc1cccc(Cl)c1 [CHLORPROPHAM]
### Response 0.101

### Prompt What about C[C@]12CCC3C(CC[C@H]4C[C@H](O)CC[C@]34C)C1CC[C@@H]2O (stereo partly drawn) [EPIANDROSTANEDIOL] ?
### Response 0.145

### Prompt Repeat with C=C1C2CC[C@@]3(C)[C@H](c4ccoc4)OC(=O)C[C@]13O[C@H]1CC(=O)C(C)(C)C(CC(=O)OC)C21C (stereo partly drawn) [[…], METHYL ESTER]
### Response 0.56

### Prompt Same question, CC1(C)C(=O)C=C[C@]2(C)[C@H]3CC[C@@]4(C)[C@H](c5ccoc5)OC(=O)[C@H]5O[C@]54[C@]3(C)C=C[C@@H]12 [7-DESACETOXY-6,7- DEHYDROGEDUNIN] this time
### Response 0.171

### Prompt Same thing, different molecule: C=CCCCCCCCCCCCC(O)CC(O)CO (stereo not drawn) [AVOCADENE]
### Response 0.209

### Prompt What about CCCCC1(COC(=O)CCC(=O)O)C(=O)N(c2ccccc2)N(c2ccccc2)C1=O [SUXIBUZONE, reference compound] ?
### Response 0.329

### Prompt What would you report for O=C(/C=C(\O)c1ccccc1)c1ccccc1O [2',beta- DIHYDROXYCHALCONE] ?
### Response 0.31

### Prompt What do you get for CCCc1occc(=O)c1/C=C/O [2-PROPYL-3- HYDRO[…]-4-ONE] ?
### Response 0.104

### Prompt Also CC1(C)CC2C1CCC1(CBr)CC[C@H]3C(CC(=O)O)C(=O)OC23C1 (stereo partly drawn) ?
### Response 0.245

### Prompt // same read-out, input: Oc1ccc2c(c1)OCC1c3cc4c(cc3OC21)OCO4 (stereo not drawn) [MAACKIAIN]
### Response 0.104

### Prompt Ok, now CC(=O)O[C@]1(C(C)=O)CC[C@H]2[C@@H]3C=C(Cl)C4=CC(=O)CC[C@]4(C)[C@H]3CC[C@@]21C [CHLORMADINONE ACETATE, reference compound]
### Response 0.2

### Prompt What do we get for CC(C)=CCOc1c2occc2cc2ccc(=O)oc12 [IMPERATORIN] ?
### Response 0.147
